From: PubChem BioAssay (NCATS)

Assay: Drug repurposing screens with cells derived from glioblastoma tumor samples (AID 1345199); further: nearly all actives have a fitted effect of over 40% in size
Conditions: GBM patient neurospheres viability, ATP luminescence, 48 h; tumour line A; series mostly up to 46.1 µM
Method: CD133+ cells were isolated from GBM patient biopsies and cultured as neurospheres. Neurospheres from four patients were used to screen the NCATS pharmaceutical collection (NPC) library of approved drugs and bioactive compounds. […] The neurospheres were incubated with drugs for 48 hours in 1536-well format, then assayed with an ATP content cell viability assay. […]
Records with an inconclusive call do not appear. Activity calls are given as the source filed them. The call rests on the fitted dose curve; in most records, active means well fitted inhibition curve with a large enough effect; inconclusive means small, poorly fitted or top-dose-only effect; inactive means flat fitted curve, though single readings scatter.
value-kind: outcome

- smiles-str: "CC1(C)[C@H](O[C@H]2O[C@H](C(=O)O)[C@@H](O)[C@H](O)[C@H]2O[C@@H]2O[C@H](C(=O)O)[C@@H](O)[C@H](O)[C@H]2O)CC[C@@]2(C)[C@H]1CC[C@]1(C)[C@H]2C(=O)C=C2[C@H]3C[C@@](C)(C(=O)O)CC[C@]3(C)CC[C@]21C"
  outcome: "inactive"
- smiles-str: "Cc1onc(-c2ccccc2)c1C(=O)N[C@@H]1C(=O)N2[C@@H](C(=O)O)C(C)(C)S[C@@H]12"
  outcome: "inactive"
- smiles-str: "O=C(O)C(=O)Nc1cccc(C2=NN=N[N]2)c1"
  outcome: "inactive"
- smiles-str: "Nc1ccn(C[C@@H](CO)OCP(=O)(O)O)c(=O)n1"
  outcome: "inactive"
- smiles-str: "O=C1c2c(O)cccc2[C@@H]([C@@H]2O[C@H](CO)[C@@H](O)[C@H](O)[C@H]2O)c2cc(CO)cc(O)c21"
  outcome: "inactive"

Kindly review the next compound as well.
Prompt: Which outcome is listed for CCCCCCCCCCCCCCCC(=O)OC[C@@H](NC(=O)C(Cl)Cl)[C@H](O)c1ccc([N+](=O)[O-])cc1 ?
Response: inactive

###

experiment: qHTS of pediatric cancer cell lines to identify multiple opportunities for drug repurposing: Confirmatory screen for SK-N-SH cells (AID 1347129); settings: SK-N-SH neuroblastoma cell viability; series mostly up to 46.1 µM;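 further: cells exposed to compound for 48 h before viability read; nearly all actives have a fitted effect of over 60% in size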
Results filed as inconclusive are left out. Activity calls are given as the source filed them. The call rests on the fitted dose curve; in most records, active means well fitted cell-killing curve with a large enough effect; inconclusive means small, poorly fitted or top-dose-only effect; inactive means flat fitted curve, though single readings scatter. Starred links: 1 amine or outer side, 2 acyl side, 3 side chain; linkers in the order of their positions; H or OH if unused. Positions of bridges follow the written chain, without caps; N, C: chain ends. Non-standard residues stand in square brackets, D forms with d. Residues, ends and D or L forms follow the SMILES beside them. Chains are numbered I, II in the order given. Actinocin(9to1) = Cc1c2oc3c(C)ccc(C(=O)[*:1])c3nc-2c(C(=O)[*:2])c(N)c1=O; NMeV = CN[CH](C(=O)O)C(C)C; Sar = CNCC(=O)O
Classes to choose from: active, inactive

Prompt: Just curious, what result did COc1ccc(Nc2cc(-c3cnc(N)nc3)nc(N3CCOCC3)n2)cn1 get here?
Response: active

Prompt: Please state the recorded outcome for this compound: Cc1c2oc3c(C)ccc(C(=O)NC4C(=O)NC(C(C)C)C(=O)N5CCCC5C(=O)N(C)CC(=O)N(C)C(C(C)C)C(=O)OC4C)c3nc-2c(C(=O)NC2C(=O)NC(C(C)C)C(=O)N3CCCC3C(=O)N(C)CC(=O)N(C)C(C(C)C)C(=O)OC2C)c(N)c1=O (stereo unspecified) (I: TVP[Sar][NMeV] / II: TVP[Sar][NMeV]; ester I:1-I:C, II:1-II:C; linker I:N-II:N via Actinocin(9to1); configuration not given here)
Response: active

Prompt: Status in this test for C=C1C(=CC=C2CCC[C@]3(C)[C@@H]([C@H](C)CCCC(C)(C)O)CC[C@@H]23)C[C@@H](O)C[C@@H]1O ?
Response: inactive

Prompt: What call does the record list for COC(=O)[C@@H]1[C@H]2C[C@@H]3c4[nH]c5ccccc5c4CCN3C[C@@H]2CC[C@@H]1O ?
Response: inactive

Prompt: Query: recorded result category for CS(=O)(=O)N1CCc2c(-c3cnc(N)nc3)nc(N3CCOCC3)nc21 in this test
Response: active

Prompt: Record lookup: outcome of this test for COc1ccc(C[C@@H](C)[C@@H](C)Cc2ccc(OC)c(OC)c2)cc1OC ?
Response: inactive
